# %Inh annotations
- Test system: DCAMKL2
- Construct: gene DCLK2
- experimental.setup: concentration: 1 μM, replicates: in singlicate; n = 1;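 also: KINOMEscan kinase panel screen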

[
  {
    "compound": "Fc1ccc(-c2nc[nH]c2-c2ccncc2)cc1",
    "tgt": "DCAMKL2",
    "%Inh / %": 0
  },
  {
    "compound": "COc1cccc(NC(=O)Nc2ccc(C)c(-c3ccc(C(=O)Nc4ccncc4)cc3)c2)c1",
    "tgt": "DCAMKL2",
    "%Inh / %": 7
  },
  {
    "compound": "O=C(Nc1n[nH]c2nc(-c3cccs3)c(Br)cc12)C1CC1",
    "tgt": "DCAMKL2",
    "%Inh / %": 0
  },
  {
    "compound": "O=C(Nc1n[nH]c2nc(-c3ccco3)c(Br)cc12)C1CCN(Cc2ccccc2)C1.O=C(O)[C@H](O)[C@@H](O)C(=O)O (stereo not drawn)",
    "tgt": "DCAMKL2",
    "%Inh / %": 7
  },
  {
    "compound": "COc1ccc(Nc2nccc(N3CCC(NC(=O)C(C)c4ccc(Cl)cc4)C3)n2)cc1 (stereo not drawn)",
    "tgt": "DCAMKL2",
    "%Inh / %": 6
  },
  {
    "compound": "CS(=O)(=O)Cc1ccc(Nc2nccc(-c3c(-c4cccc(NC(=O)C5CCCCC5)c4)nn4ncccc34)n2)cc1",
    "tgt": "DCAMKL2",
    "%Inh / %": 15
  },
  {
    "compound": "Cn1cncc1C(=O)NC1CCN(c2ccnc(Nc3ccc(F)cc3)n2)C1 (stereo not drawn)",
    "tgt": "DCAMKL2",
    "%Inh / %": 0
  },
  {
    "compound": "c1ccc(-c2ccnc3[nH]ccc23)cc1",
    "tgt": "DCAMKL2",
    "%Inh / %": 0
  },
  {
    "compound": "CSc1ccc(-c2nc3n(c2-c2ccncc2)CCC3)cc1",
    "tgt": "DCAMKL2",
    "%Inh / %": 0
  }
]

* * *

- System: PLK2
- experimental.setup: concentration: 1 μM, replicates: in singlicate; n = 1
property.measured: %Inh (%)

[
  {
    "compound": "Fc1ccc(-c2nn3cccc(F)c3c2-c2ccncc2)cc1 [GW475620]",
    "property.measured": "%Inh",
    "observed.measurement": 69
  },
  {
    "compound": "COc1ccc(Nc2nccc(NCCNC(=O)Nc3cc(C)ccc3C)n2)cc1 [GSK1379899]",
    "property.measured": "%Inh",
    "observed.measurement": 0
  },
  {
    "compound": "CCc1ccc(-c2ccc3c(c2)-c2n[nH]cc2S(=O)(=O)N3C)cc1",
    "property.measured": "%Inh",
    "observed.measurement": 0
  },
  {
    "compound": "COc1ccc2cc(-c3nc(-c4ccccc4C(C)C)[nH]c3-c3ccncc3)ccc2c1 [SB-660566]",
    "property.measured": "%Inh",
    "observed.measurement": 0
  },
  {
    "compound": "Fc1ccc(-c2nc3n(c2-c2ccncc2)CCS3)cc1 [GI98581]",
    "property.measured": "%Inh",
    "observed.measurement": 0
  },
  {
    "compound": "O=C(Nc1n[nH]c2nc(-c3cccs3)c(Br)cc12)C1CC1 [SB-735297]",
    "property.measured": "%Inh",
    "observed.measurement": 19
  },
  {
    "compound": "CNC(=O)c1ccc(C)c(-n2c(C)cc(OCc3ccc(F)cc3F)c(Br)c2=O)c1",
    "property.measured": "%Inh",
    "observed.measurement": 0
  },
  {
    "compound": "CSc1ccc(-c2nc3n(c2-c2ccncc2)CCC3)cc1 [SKF-105561]",
    "property.measured": "%Inh",
    "observed.measurement": 29
  },
  {
    "compound": "COc1ccc(CSc2nnc(-c3ccc4nccn4c3)o2)cc1C(F)(F)F",
    "property.measured": "%Inh",
    "observed.measurement": 42
  },
  {
    "compound": "c1ccc(-c2ccnc3[nH]ccc23)cc1 [SB-693578]",
    "property.measured": "%Inh",
    "observed.measurement": 0
  }
]
